target: Glycogen synthase kinase-3 beta (Homo sapiens) (UniProt P49841); experiment: NPC library primary assay, GSK-3β enzyme inhibitors, biochemical, Homo sapiens, LANCE Ultra TR-FRET detection (AID 1117355); conditions: LANCE Ultra TR-FRET kinase activity; at 20 µM (top of the series)
Sequence (P49841 whole entry, looked up): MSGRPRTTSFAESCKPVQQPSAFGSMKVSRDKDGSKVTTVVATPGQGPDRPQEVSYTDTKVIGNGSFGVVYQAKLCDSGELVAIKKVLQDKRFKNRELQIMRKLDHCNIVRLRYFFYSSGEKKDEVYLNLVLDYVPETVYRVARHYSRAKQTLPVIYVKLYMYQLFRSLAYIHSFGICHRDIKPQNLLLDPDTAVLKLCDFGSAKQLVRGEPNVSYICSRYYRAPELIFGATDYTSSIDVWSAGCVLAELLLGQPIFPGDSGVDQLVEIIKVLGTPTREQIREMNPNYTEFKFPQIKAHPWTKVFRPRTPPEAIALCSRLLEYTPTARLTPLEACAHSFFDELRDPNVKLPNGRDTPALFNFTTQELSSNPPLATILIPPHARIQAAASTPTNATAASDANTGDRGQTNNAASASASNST
Calls of active or inactive are those of the source. No rule for the calls is given here.
value_kind: inhibition

Required: inhibition, one value per molecule below.
1. Oc1c(I)cc(I)c2cccnc12
2. O=C(Nc1ccc([N+](=O)[O-])cc1Cl)c1cc(Cl)ccc1O
3. CC(C)(C)C1CCC(CC2=C(O)c3ccccc3C(=O)C2=O)CC1 (centres undefined)
4. Cc1cc(O)c2ccccc2c1O
5. CC[C@]1(O)C[C@@H]2CN(CCc3c([nH]c4ccccc34)[C@@](C(=O)OC)(c3cc4c(cc3OC)N(C)[C@H]3[C@@](O)(C(=O)OC)[C@H](OC(C)=O)[C@]5(CC)C=CCN6CC[C@]43[C@@H]65)C2)C1
6. C=CC(=O)Nc1cc2c(Nc3ccc(F)c(Cl)c3)ncnc2cc1OCCCN1CCOCC1

-1.57% (inactive)
-11.3% (inactive)
10.2% (inactive)
50.4%
-4.66% (inactive)
31.2% (inactive)
